- TESTED ON: α1-receptors of the rat vas deferens (Rattus norvegicus)
- Construct: from tissue; host or cells: rat vas deferens
- Sequence (P43140 whole entry): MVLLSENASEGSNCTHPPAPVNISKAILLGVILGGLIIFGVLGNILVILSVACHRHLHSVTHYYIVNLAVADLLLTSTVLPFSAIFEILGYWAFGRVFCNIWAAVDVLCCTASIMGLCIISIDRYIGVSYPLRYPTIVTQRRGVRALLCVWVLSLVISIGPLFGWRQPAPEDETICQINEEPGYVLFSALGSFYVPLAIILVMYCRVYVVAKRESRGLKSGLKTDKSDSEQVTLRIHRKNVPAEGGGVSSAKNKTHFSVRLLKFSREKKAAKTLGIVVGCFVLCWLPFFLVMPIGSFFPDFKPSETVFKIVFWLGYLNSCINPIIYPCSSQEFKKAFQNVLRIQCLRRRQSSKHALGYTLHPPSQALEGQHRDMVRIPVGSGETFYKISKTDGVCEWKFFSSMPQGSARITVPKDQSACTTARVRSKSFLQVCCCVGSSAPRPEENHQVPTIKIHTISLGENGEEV
- PROTOCOL DETAILS: Antagonism of α1-receptors of the rat vas deferens (phenylephrine as agonist)
- Assay type: biochemical
- MEASUREMENT SETUP: compounds of formula (I) as hydrochlorides, read-out: pA2 (α1, rat vas deferens) (converted)
VALUE TYPE: Kb (µM)

• O[C@@H]1CC[C@H]2CN3CCc4cc5c(cc4[C@H]3C[C@H]2C1)OCO5 (relative stereo) [Example 26, 14α-hydroxy-7,8-methylenedioxyalloberban] = 11.2

A = O[C@H]1CC[C@H]2CN3CCc4cc5c(cc4[C@H]3C[C@H]2C1)OCO5 (relative stereo) [Example 25, 14β-hydroxy-7,8-methylenedioxyalloberban]
B = COC(=O)C1C(O)CCC2CN3CCc4cc5c(cc4C3CC21)OCO5 (stereo not drawn)
Which has the smaller recorded Kb, A or B ? Output the label that corresponds to your choice.
B
(B: 0.661 µM, A: 14.1 µM)
